Target: T1, CRBN, Q96SW2;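 also: pooled lentiviral library of zinc finger degron-EGFP fusions in mCherry-positive Jurkat cells, FACS-sorted after compound exposure, with degron abundance counted by next-generation sequencing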
T1 chain: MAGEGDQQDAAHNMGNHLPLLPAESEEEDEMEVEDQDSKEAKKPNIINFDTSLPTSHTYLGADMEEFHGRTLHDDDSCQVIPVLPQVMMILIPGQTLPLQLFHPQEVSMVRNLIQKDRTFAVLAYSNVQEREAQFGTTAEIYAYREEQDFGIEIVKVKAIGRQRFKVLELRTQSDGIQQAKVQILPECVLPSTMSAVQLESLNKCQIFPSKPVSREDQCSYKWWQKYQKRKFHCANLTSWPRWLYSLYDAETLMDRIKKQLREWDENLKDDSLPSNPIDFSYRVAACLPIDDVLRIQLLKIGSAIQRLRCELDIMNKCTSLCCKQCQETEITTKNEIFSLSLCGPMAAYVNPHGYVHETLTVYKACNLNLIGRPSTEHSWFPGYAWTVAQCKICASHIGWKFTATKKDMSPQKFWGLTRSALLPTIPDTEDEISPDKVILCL
Experiment: log2 fold change of degron read counts, EGFP-low vs EGFP+ sorted cells (limma voom), compound-induced degradation; higher = more compound-induced degradation of the degron-EGFP fusion; degrons are variants of IKZF1/3 zinc finger 2; compound dose not given here
Details: Jurkat; 18 h; compound: compound 19 (5-tert-butyl-thalidomide)
In all, about 8,300 sequences were measured (“log2 fold change of degron read counts, EGFP-low vs EGFP+ sorted cells (limma voom), compound-induced degradation”: median about -1.1, highest 2% from about 3.2 on). For the sample, the highest values were picked, then their nearest neighbours and some sequences at random.
quantity: log2 fold change of degron read counts

polymer_sequence="FGCNQCGRAFTQKGNLLRHIKL [46F_47G_49N_50Q_52G_53R_54A_55F_67L_, Q9UKT9]" quantity="log2 fold change of degron read counts" reported_measurement=-2.18
polymer_sequence="FDCDVCGADFTQKGNLLRHIKL [46F_47D_49D_50V_52G_53A_54D_55F_67L_, Q9UKT9]" quantity="log2 fold change of degron read counts" reported_measurement=-3.06
polymer_sequence="FNCNQCGRPFTQKGNLLRHIKL [46F_47N_49N_50Q_52G_53R_54P_55F_67L_, Q9UKT9]" quantity="log2 fold change of degron read counts" reported_measurement=-1.93
polymer_sequence="FSCPQCGAHFTQKGNLLRHIKL [46F_47S_49P_50Q_52G_53A_54H_55F_67L_, Q9UKT9]" quantity="log2 fold change of degron read counts" reported_measurement=-1.06
